Test system: A498 complex spheroid viability
Assay: Anticancer human tumor A498 cell line growth inhibition;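 also: spheroids exposed to agents for seven days before readout; 100% = DMSO vehicle-treated spheroids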
Settings: second compound 1 µM; first compound 0.001 µM; active compounds read low
observable: viability, T/C

Sample records with viability, T/C:
compound="CC[C@@]1(O)C(=O)OCc2c1cc1n(c2=O)Cc2cc3c(CN(C)C)c(O)ccc3nc2-1 + NC1CC1c1ccc(-c2cccc(O)c2)cc1" observable="viability, T/C" observed_result=103%
compound="CC(C)CC(NC(=O)CNC(=O)c1cc(Cl)ccc1Cl)B1OC(=O)CC(CC(=O)O)(C(=O)O)O1 (stereo not drawn) + NC1CCC(NC2CC2c2ccccc2)CC1" observable="viability, T/C" observed_result=96.5%

Turning now to a further record.
[in] Fill in viability, T/C for record CC(C)CC(NC(=O)CNC(=O)c1cc(Cl)ccc1Cl)B1OC(=O)CC(CC(=O)O)(C(=O)O)O1 (stereo not drawn) + NC1CC1c1ccc(-c2cccc(O)c2)cc1
[out] 102%

###

Tested on: A498 complex spheroid viability
Test: Anticancer human tumor A498 cell line growth inhibition;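 also: spheroids exposed to agents for seven days before readout; 100% = DMSO vehicle-treated spheroids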
Settings: second compound 3.16 µM; first compound 0.003 µM; active compounds read low
Assign labels as follows, please: 1 for viability, T/C below 30%; -1 for viability, T/C equal to or exceeding 30%.

Some solved cases for reference:
compound="Nc1ncn(C2CC(O)C(CO)S2)c(=O)n1 (stereo unspecified) + NC1CC1c1ccc(-c2cccc(O)c2)cc1" label=-1
compound="Nc1ncn(C2CC(O)C(CO)S2)c(=O)n1 (stereo unspecified) + NC1CCC(NC2CC2c2ccccc2)CC1" label=-1
compound="CCc1c2c(nc3ccc(O)cc13)-c1cc3c(c(=O)n1C2)COC(=O)[C@]3(O)CC + NC1CC1c1ccc(-c2cccc(O)c2)cc1" label=-1
compound="CCc1c2c(nc3ccc(O)cc13)-c1cc3c(c(=O)n1C2)COC(=O)[C@]3(O)CC + NC1CCC(NC2CC2c2ccccc2)CC1" label=-1

Alright, here's another compound for you.
[in] Quick check: does Nc1ccn(C2OC(CO)C(O)C2(F)F)c(=O)n1 (stereo unspecified) + NC1CC1c1ccc(-c2cccc(O)c2)cc1 have viability, T/C under 30%?
[out] 1

###

Test system: A498 complex spheroid viability
Experiment: Anticancer human tumor A498 cell line growth inhibition; active means viability on the fitted dose curve at most 10% of control; inactive means the rest;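 also: spheroids exposed to agents for seven days before readout; 100% = DMSO vehicle-treated spheroids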
Conditions: second compound 0.316 µM; first compound 0.1 µM
Outcomes you can answer with include only these: yes = active, no = inactive

molecule="CC1COCCN1c1cc(-c2ccnn2C)c2ccnc(-c3ccn[nH]3)c2n1 (stereo not given) + NC1CC1c1ccc(-c2cccc(O)c2)cc1" label=no
molecule="Cn1ncnc1C1c2n[nH]c(=O)c3cc(F)cc(c23)NC1c1ccc(F)cc1 (stereo not given) + NC1CC1c1ccc(-c2cccc(O)c2)cc1" label=no
molecule="CC(C)CC(NC(=O)C(Cc1ccccc1)NC(=O)c1cnccn1)B(O)O (stereo not given) + NC1CC1c1ccc(-c2cccc(O)c2)cc1" label=yes
molecule="COc1ccc([C@@H](O)c2cc(-c3ncnc4cc(N5CCOCC5)ccc34)c(F)cc2Cl)nn1 + NC1CC1c1ccc(-c2cccc(O)c2)cc1" label=no
molecule="Cn1ncnc1C1c2n[nH]c(=O)c3cc(F)cc(c23)NC1c1ccc(F)cc1 (stereo not given) + NC1CCC(NC2CC2c2ccccc2)CC1" label=no
molecule="CC1(C)CCC(CN2CCN(c3ccc(C(=O)NS(=O)(=O)c4ccc(NCC5CCOCC5)c([N+](=O)[O-])c4)c(Oc4cnc5[nH]ccc5c4)c3)CC2)=C(c2ccc(Cl)cc2)C1 + NC1CC1c1ccc(-c2cccc(O)c2)cc1" label=no

Alright, here's another molecule for you.
[in] Could you kindly confirm the outcome this assay logged for CC1COCCN1c1cc(-c2ccnn2C)c2ccnc(-c3ccn[nH]3)c2n1 (stereo not given) + NC1CCC(NC2CC2c2ccccc2)CC1 ?
[out] no
